The values you see were collected from patent US4875922A.

Give measured T = Tillering or side shooting for each item. Keep answers brief.
Tested on: Rice
assay.summary: Whole plant screen for plant growth regulator activity, rice (RC)
Format: in vivo, Rice (Ishikari)
run.parameters: 4000 ppm (4 kg/ha), visual score after 2-6 weeks, * = decrease in tillering

Q: I would be grateful if you could share the reported T = Tillering or side shooting for CC(C)CCC#CC(O)(c1cncnc1)C(C)C (centres unmarked) .
Ans: 1 (10-30%)

Q: Moving on to the next compound: CCC(C)CCCC(O)(c1cncnc1)C(C)C (centres unmarked)
Ans: 2 (31-60%)

Q: Then this compound: CC(C)CCC(O)(c1cncnc1)C(C)(C)C (centres unmarked)
Ans: 1 (10-30%)

Q: And what about the compound CCCCC#CC(O)(c1cncnc1)C(C)C (centres unmarked) ?
Ans: 3 (61-100%)

Q: Repeat for the following compound: CCCCCC(O)(c1cncnc1)C(C)C (centres unmarked)
Ans: 1 (10-30%)

Q: And then CC(C)C(O)(CCC(C)(C)C)c1cncnc1 (centres unmarked) , what is it?
Ans: 3 (61-100%)

Q: # iterate: CCCC#CC(O)(c1cncnc1)C(C)C (centres unmarked)
Ans: 3 (61-100%)

Q: Queued: CCC(C)C#CC(O)(c1cncnc1)C(C)C (centres unmarked)
Ans: 1 (10-30%)

Q: Repeat for the following compound: CC(C)CC#CC(O)(c1cncnc1)C(C)(C)C (centres unmarked)
Ans: 1 (10-30%)

Q: Another compound to check: CCCCCCC(O)(c1cncnc1)C(C)(C)C (centres unmarked)
Ans: 3 (61-100%)

Q: What do you get for CC(C)CCCC(O)(c1cncnc1)C(C)(C)C (centres unmarked) ?
Ans: 1 (10-30%)

----------
Exercise: state measured G = Greening effect for each of the molecules provided.
System: Tomato
assay.summary: Whole plant screen for plant growth regulator activity, tomato (TO)
Assay type: in vivo, Tomato (Ailsa Craig)
run.parameters: 4000 ppm (4 kg/ha), visual score after 2-6 weeks

Q: Item under review: CC(C)C(O)(CC1CCCC1)c1cncnc1 (stereo not drawn) [Compound 27] . Reported G = Greening effect?
Ans: 2 (31-60%)

Q: Moving on to CC(C)CC#CC(O)(c1cncnc1)C1CC1 (stereo not drawn) [Compound 56]
Ans: 1 (10-30%)

Q: What about this molecule? CCCCCC#CC(O)(c1cncnc1)C(C)C (stereo not drawn) [Compound 23]
Ans: 2 (31-60%)

Q: Now consider CCCCCCC#CC(O)(c1cncnc1)C(C)(C)C (stereo not drawn) [Compound 33] .
Ans: 1 (10-30%)

Q: And CCCCCCC#CC(O)(c1cncnc1)C(C)C (stereo not drawn) [Compound 24] ?
Ans: 2 (31-60%)

Q: For CCCCC#CC(O)(c1cncnc1)C(C)(C)C (stereo not drawn) [Compound 31] then?
Ans: 2 (31-60%)

Q: Now consider CCC(Cl)CC#CC(O)(c1cncnc1)C(C)(C)C (stereo not drawn) [Compound 38] .
Ans: 2 (31-60%)

Q: What do you have for CC(C)CCCCC(O)(c1cncnc1)C(C)C (stereo not drawn) [Compound 22] ?
Ans: 2 (31-60%)

Q: Next molecule: CC(C)C(O)(C#CCCCCl)c1cncnc1 (stereo not drawn) [Compound 8]
Ans: 2 (31-60%)

Q: Now consider CC(C)CCC#CC(O)(c1cncnc1)C(C)C (stereo not drawn) [Compound 12] and answer again.
Ans: 1 (10-30%)

Q: Also, CC(C)C(O)(CCC(C)(C)C)c1cncnc1 (stereo not drawn) [Compound 20] please.
Ans: 2 (31-60%)

Q: # repeat for CCC(C)CCCC(O)(c1cncnc1)C(C)C (stereo not drawn) [Compound 21]
Ans: 2 (31-60%)

Q: Try this molecule too: CCCCCC(O)(c1cncnc1)C(C)(C)C (stereo not drawn) [Compound 15]
Ans: 2 (31-60%)

Q: Now try CCCCCCC(O)(c1cncnc1)C(C)(C)C (stereo not drawn) [Compound 30] .
Ans: 2 (31-60%)

Q: Quick one: CCC(C)C#CC(O)(c1cncnc1)C(C)C (stereo not drawn) [Compound 5]
Ans: 2 (31-60%)

Q: What about this molecule? CC(C)(C)C(O)(C#CCCCCl)c1cncnc1 (stereo not drawn) [Compound 19]
Ans: 2 (31-60%)

Q: Here is the next molecule: CCC/C=C\C(O)(c1cncnc1)C(C)C (stereo not drawn) [Compound 25]
Ans: 2 (31-60%)

Q: Repeat for the following molecule: CC(C)(C)/C=C/C(O)(c1cncnc1)C(C)(C)C (stereo not drawn) [Compound 39]
Ans: 2 (31-60%)

Q: For CC(C)CCCC(O)(c1cncnc1)C(C)(C)C (stereo not drawn) [Compound 17] then?
Ans: 1 (10-30%)

Q: Cool, now CCCC#CC(O)(c1cncnc1)C(C)(C)C (stereo not drawn) [Compound 14]
Ans: 2 (31-60%)

Q: Entry CC(C)CCC(O)(c1cncnc1)C(C)(C)C (stereo not drawn) [Compound 29] please
Ans: 1 (10-30%)

Q: Follow-up item: CCCCCCCC(O)(c1cncnc1)C(C)C (stereo not drawn) [Compound 26]
Ans: 1 (10-30%)

Q: Subsequent entry: CCCCCC#CC(O)(c1cncnc1)C(C)(C)C (stereo not drawn) [Compound 32]
Ans: 2 (31-60%)

Q: What about CC(C)C#CC(O)(c1cncnc1)C(C)C (stereo not drawn) [Compound 9] ?
Ans: 1 (10-30%)

----------
Tested on: Barley
assay.summary: Whole plant screen for plant growth regulator activity, barley (BR)
Format: in vivo, Barley (Atem)
run.parameters: BR, 4000 ppm (4 kg/ha), visual score after 2-6 weeks
Field: I = Interligular or internodal length reduction. Provide a value for each of the compounds that follow.

Q: Sample CCCCCC#CC(O)(c1cncnc1)C(C)(C)C (centres unmarked) [Compound 32] — what was its I = Interligular or internodal length reduction?
Ans: 3 (61-100%)

Q: What about CC(C)(C)/C=C/C(O)(c1cncnc1)C(C)(C)C (centres unmarked) [Compound 39] ?
Ans: 3 (61-100%)

Q: Same read-out for CC(C)CCC(O)(c1cncnc1)C(C)(C)C (centres unmarked) [Compound 29] ?
Ans: 2 (31-60%)

Q: Same question, CC(C)(C)C(O)(C#CCCCCl)c1cncnc1 (centres unmarked) [Compound 19] this time
Ans: 3 (61-100%)

Q: Next: CC(C)C(O)(C#CCCCCl)c1cncnc1 (centres unmarked) [Compound 8]
Ans: 2 (31-60%)

Q: One more compound: CC(C)CCCCC(O)(c1cncnc1)C(C)C (centres unmarked) [Compound 22]
Ans: 1 (10-30%)

Q: Further, for CC(C)CC#CC(O)(c1cncnc1)C(C)(C)C (centres unmarked) [Compound 16] ?
Ans: 2 (31-60%)

Q: Same question, CC(C)CCC#CC(O)(c1cncnc1)C(C)C (centres unmarked) [Compound 12] this time
Ans: 3 (61-100%)

Q: Another compound: CC(C)(C)C(O)(C#CCCCl)c1cncnc1 (centres unmarked) [Compound 36]
Ans: 3 (61-100%)

Q: Next compound: CCCCC#CC(O)(c1cncnc1)C(C)(C)C (centres unmarked) [Compound 31]
Ans: 3 (61-100%)

Q: Consider next the compound CC(C)C#CC(O)(c1cncnc1)C(C)(C)C (centres unmarked) [Compound 18] in the same way.
Ans: 3 (61-100%)

----------
Tested on: Maize
assay.summary: Whole plant screen for plant growth regulator activity, maize (MZ)
Type: in vivo, Maize (Earliking)
run.parameters: 4000 ppm (4 kg/ha), visual score after 2-6 weeks
Field: I = Interligular or internodal length reduction. Provide a value for each of the molecules that follow.

Q: State the recorded I = Interligular or internodal length reduction for this entry: CCCCC#CC(O)(c1cncnc1)C(C)C (stereo not shown) [Compound 1]
Ans: 2 (31-60%)

Q: Same lookup for CCCC#CC(O)(c1cncnc1)C(C)C (stereo not shown) [Compound 2] , please.
Ans: 1 (10-30%)

Q: Cool, now CCC(C)CCC(O)(c1cncnc1)C(C)C (stereo not shown) [Compound 6]
Ans: 2 (31-60%)

Q: And the next one, CC(C)CCCC(O)(c1cncnc1)C(C)C (stereo not shown) [Compound 7] ?
Ans: 2 (31-60%)

Q: Next: CCCC#CC(O)(c1cncnc1)C(C)(C)C (stereo not shown) [Compound 14]
Ans: 3 (61-100%)

Q: Let us now turn to CC(C)C(O)(C#CCCCCl)c1cncnc1 (stereo not shown) [Compound 8]
Ans: 3 (61-100%)

Q: Same thing, different molecule: CC(C)CC#CC(O)(c1cncnc1)C(C)(C)C (stereo not shown) [Compound 16]
Ans: 3 (61-100%)

----------
Tested on: Maize
assay.summary: Whole plant screen for plant growth regulator activity, maize (MZ)
Format: in vivo, Maize (Earliking)
run.parameters: 4000 ppm (4 kg/ha), visual score after 2-6 weeks
measured.metric: G = Greening effect

Q: Given the entry CCCC#CC(O)(c1cncnc1)C(C)(C)C (centres unmarked) , report its measured G = Greening effect.
Ans: 2 (31-60%)

Q: Now the same for CC(C)C(O)(C#CCCCCl)c1cncnc1 (centres unmarked)
Ans: 1 (10-30%)

Q: Same question, CCC(C)CCC(O)(c1cncnc1)C(C)C (centres unmarked) this time
Ans: 1 (10-30%)

Q: Same lookup for CC(C)CCCC(O)(c1cncnc1)C(C)C (centres unmarked) , please.
Ans: 1 (10-30%)

Q: Next molecule up: CC(C)CC#CC(O)(c1cncnc1)C(C)(C)C (centres unmarked)
Ans: 2 (31-60%)
